// reported % FITC stained bacteria 0.5 xMIC for each item listed
System: S. aureus str. Newman
Assay: Membrane permeability using SYTOX-Green, flow cytometry
Type: cell-based
Conditions: 0.5× MIC, 5 min exposure
Quick note: give the figure in %, leave out the unit.

COc1ccc(-c2c(C(F)(F)F)n[nH]c2-c2ccc(OCc3ccccc3)cc2O)cc1 : 9.29
COc1ccc(-c2c(C(F)(F)F)n[nH]c2-c2ccc(OC)cc2O)cc1 : 35.10
CCOc1ccc(-c2[nH]nc(C(F)(F)F)c2-c2ccc(OC)c(OC)c2)c(O)c1 : 31.90
Cc1n[nH]c(-c2ccc(O)cc2O)c1-c1ccc(Cl)cc1 : 38.22
Oc1ccc(-c2[nH]nc(C(F)(F)F)c2-c2ccccc2)c(O)c1 : 30.46
FC(F)(F)c1n[nH]c(-c2ccccc2)c1-c1ccc(Cl)cc1 : 31.51
COc1ccc(-c2c(C(F)(F)F)n[nH]c2-c2ccc(O)cc2O)cc1 : 9.04
COc1ccc(-c2[nH]nc(C)c2-c2ccc(Cl)cc2)c(O)c1 : 28.57

Lookup: Look up and report measured % FITC stained bacteria 0.5 xMIC for this entry: COc1ccc(-c2[nH]nc(C(F)(F)F)c2-c2ccc(Cl)cc2)c(O)c1
Found: 36.93

Lookup: State, in one line, measured % FITC stained bacteria 0.5 xMIC of Oc1ccc(-c2n[nH]c(C(F)(F)F)c2-c2ccc(Cl)cc2)c(O)c1
Found: 13.40
